Where do the numbers come from? From ChEMBL document CHEMBL2177006.

Target: Beta-secretase 1 (Homo sapiens, UniProt P56817)
Sequence (P56817 whole entry): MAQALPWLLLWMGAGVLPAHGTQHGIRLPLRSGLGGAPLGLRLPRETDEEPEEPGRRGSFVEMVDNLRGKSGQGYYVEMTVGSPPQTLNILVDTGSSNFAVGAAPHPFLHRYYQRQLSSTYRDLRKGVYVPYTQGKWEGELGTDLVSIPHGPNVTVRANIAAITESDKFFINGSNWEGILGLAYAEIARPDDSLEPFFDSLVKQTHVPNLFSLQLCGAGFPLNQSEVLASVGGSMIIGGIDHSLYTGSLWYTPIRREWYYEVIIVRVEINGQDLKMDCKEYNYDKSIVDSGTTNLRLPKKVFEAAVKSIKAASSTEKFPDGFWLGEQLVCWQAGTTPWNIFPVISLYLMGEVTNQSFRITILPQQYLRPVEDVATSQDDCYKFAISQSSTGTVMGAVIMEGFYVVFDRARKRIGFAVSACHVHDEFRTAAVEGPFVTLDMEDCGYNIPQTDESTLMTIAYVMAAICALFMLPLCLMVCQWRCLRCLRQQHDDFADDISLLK
Assay: Inhibition of BACE1 in human HEK293 cells expressing APP Swedish mutant assessed as inhibition of amyloid beta (1 to 40) production after overnight incubation by sandwich ELISA
Format: cell-based
// values below are reported IC50
Recorded Endpoint: IC50

>>> df
                                         mol  recorded_endpoint   result
 0  CC(=O)N[C@@H](Cc1ccc2c(c1)OCO2)[C@H](O)CN[C@H]1CC2(CCC2)Oc2ncc(CC(C)(C)C)cc21               IC50   5.5 nM
 1  COCC(=O)N[C@@H](Cc1ccc2c(c1)OCO2)[C@H](O)CN[C@H]1CC2(CCC2)Oc2ncc(CC(C)(C)C)cc21               IC50  16.8 nM
 2  CC(C)(C)Cc1cnc2c(c1)[C@@H](NC[C@@H](O)[C@H](Cc1ccc3c(c1)OCO3)NC(=O)[C@@H]1CCCO1)CC1(CCC1)O2               IC50  27.5 nM
 3  COc1ccc(C[C@H](NC(C)=O)[C@H](O)CN[C@H]2CC3(CCC3)Oc3ncc(CC(C)(C)C)cc32)cc1OC               IC50   9.3 nM
 4  CC(C)(C)Cc1cnc2c(c1)[C@@H](NC[C@@H](O)[C@H](Cc1ccc3c(c1)OCO3)NC(=O)c1ccccc1F)CC1(CCC1)O2               IC50  1150 nM
 5  CC(C)(C)Cc1cnc2c(c1)[C@@H](NC[C@@H](O)[C@H](Cc1ccc3c(c1)OCO3)NC(=O)c1ccc(F)nc1)CC1(CCC1)O2               IC50  69.5 nM
 6  CC(=O)N[C@@H](Cc1ccc(OC(F)F)c(OC(F)F)c1)[C@H](O)CN[C@H]1CC2(CCC2)Oc2ncc(CC(C)(C)C)cc21               IC50   238 nM
 7  CC(C)C(=O)N[C@@H](Cc1ccc2c(c1)OCO2)[C@H](O)CN[C@H]1CC2(CCC2)Oc2ncc(CC(C)(C)C)cc21               IC50   812 nM
 8  CC(C)(C)Cc1cnc2c(c1)[C@@H](NC[C@@H](O)[C@H](Cc1ccc3c(c1)OCO3)NC(=O)c1cccnc1F)CC1(CCC1)O2               IC50  64.3 nM
 9  CC(C)(C)Cc1cnc2c(c1)[C@@H](NC[C@@H](O)[C@H](Cc1ccc3c(c1)OCO3)NC(=O)c1cccnc1)CC1(CCC1)O2               IC50  67.6 nM
10  C[C@@H](F)C(=O)N[C@@H](Cc1ccc2c(c1)OCO2)[C@H](O)CN[C@H]1CC2(CCC2)Oc2ncc(CC(C)(C)C)cc21               IC50  55.5 nM

---

// values below are reported pIC50
Biological target: Beta-secretase 1 (Homo sapiens, UniProt P56817)
Test: Inhibition of human recombinant BACE1 using Glu-Ile-Asp-Leu-Met-Val-Leu-Asp as substrate incubated for 60 mins prior to substrate addition measured after 60 mins by FRET assay
pIC50: −log10 of the molar value.
Recorded Endpoint: pIC50

In [3]: df
Out[3]:
                                        mol  recorded_endpoint  numeric_value
0  CC(=O)N[C@@H](Cc1ccc2c(c1)OCO2)[C@H](O)CN[C@H]1CC2(CCC2)Oc2ncc(CC(C)(C)C)cc21              pIC50           8.10
1  CC(C)(C)Cc1cnc2c(c1)[C@@H](NC[C@@H](O)[C@H](Cc1ccc3c(c1)OCO3)NC(=O)c1cccnc1F)CC1(CCC1)O2              pIC50           7.48
2  COCC(=O)N[C@@H](Cc1ccc2c(c1)OCO2)[C@H](O)CN[C@H]1CC2(CCC2)Oc2ncc(CC(C)(C)C)cc21              pIC50           8.27
3  CC(C)(C)Cc1cnc2c(c1)[C@@H](NC[C@@H](O)[C@H](Cc1ccc3c(c1)OCO3)NC(=O)c1ccc(F)nc1)CC1(CCC1)O2              pIC50           7.32
4  CC(C)(C)Cc1cnc2c(c1)[C@@H](NC[C@@H](O)[C@H](Cc1ccc3c(c1)OCO3)NC(=O)c1cccnc1)CC1(CCC1)O2              pIC50           7.58
5  CC(C)(C)Cc1cnc2c(c1)[C@@H](NC[C@@H](O)[C@H](Cc1ccc3c(c1)OCO3)NC(=O)c1ccccc1F)CC1(CCC1)O2              pIC50           7.12
6  COc1ccc(C[C@H](NC(C)=O)[C@H](O)CN[C@H]2CC3(CCC3)Oc3ncc(CC(C)(C)C)cc32)cc1OC              pIC50           7.74
7  CC(=O)N[C@@H](Cc1ccc(OC(F)F)c(OC(F)F)c1)[C@H](O)CN[C@H]1CC2(CCC2)Oc2ncc(CC(C)(C)C)cc21              pIC50           7.45
8  CC(C)(C)Cc1cnc2c(c1)[C@@H](NC[C@@H](O)[C@H](Cc1ccc3c(c1)OCO3)NC(=O)[C@@H]1CCCO1)CC1(CCC1)O2              pIC50           7.69
